Attribution: patent US20070259879A1

Each entry below carries its recorded pIC50.
# Test system: HIV-1 pseudotyped virus
# assay_text: HIV-1 pseudotyped virus assay (luciferase reporter gene, single cycle of infection)
# Type: cell-based
# conditions: Human immunodeficiency virus 1, CCR5, 72 h, read-out: Activity (antiviral activity, IC50)
# Text: In this example are illustrated experimental procedures for determining biological activity, such as antiviral activity. For determining biological activity, an HIV-1 infection assay was used to determine the antiviral potency for compounds of the present invention. […] The compounds of the present invention being tested for antiviral activity were serially diluted and dose responses determined in duplicate in two separate experiments. […]
pIC50: −log10 of the molar value.

{"columns": ["compound", "pIC50"],
 "data": [
  ["C[C@@H]1CN(C(=O)c2ccccc2)CCN1C(=O)C(=O)c1ccc(-c2cscn2)cc1 [Example 177]", "> 5.30"],
  ["CC1CN(C(=O)c2ccccc2)CCN1S(=O)(=O)c1ccc(C(=O)c2ccon2)s1 (centres unmarked) [Example 112]", "< 5.30"],
  ["CC1CN(C(=O)c2ccccc2)CCN1C(=O)C(=O)c1ccc(-c2ccn[nH]2)cc1 (centres unmarked) [Example 169]", "> 5.30"],
  ["CC1CN(C(=O)c2ccccc2)CCN1S(=O)(=O)c1ccc(-c2cc(-n3ccnc3)ncn2)s1 (centres unmarked) [Example 152]", "< 5.30"],
  ["C[C@@H]1CN(C(=O)c2ccccc2)CCN1C(=O)C(=O)c1cc(Cl)c(-c2cc[nH]n2)cc1N(C)C [Example 222]", "< 5.30"],
  ["CC1CN(C(=O)c2ccccc2)CCN1S(=O)(=O)c1ccc(-n2nccn2)cc1 (centres unmarked) [Example 117]", "< 5.30"],
  ["COc1cc(OC)c(C(=O)C(=O)N2CCN(C(=O)c3ccccc3)C[C@H]2C)cn1 [Example 238]", "< 5.30"],
  ["C[C@@H]1CN(C(=O)c2ccccc2)CCN1C(=O)C(=O)c1ccc(-c2nccn2C)s1 [Example 188]", "< 5.30"]
]}

----------
# System: HIV-1 pseudotyped virus
# assay_text: HIV-1 pseudotyped virus assay (luciferase reporter gene, single cycle of infection)
# Type: cell-based
# conditions: Human immunodeficiency virus 1, CCR5, 72 h, read-out: Activity (antiviral activity, IC50)
Each entry below carries its recorded IC50.

{"columns": ["compound", "IC50"],
 "data": [
  ["C[C@@H]1CN(C(=O)c2ccccc2)CCN1C(=O)C(=O)c1ccc(-c2nccs2)cc1", "< 5 µM"],
  ["C[C@@H]1CN(C(=O)c2ccccc2)CCN1C(=O)C(=O)c1cnc(-c2cccs2)cc1O", "> 5 µM"],
  ["C[C@@H]1CN(C(=O)c2ccccc2)CCN1C(=O)C(=O)c1ccc(-n2cccn2)cc1", "< 5 µM"],
  ["CC1CN(C(=O)c2ccccc2)CCN1S(=O)(=O)c1ccc(-c2ccncn2)s1 (stereo not shown)", "> 5 µM"]
]}

----------
# Tested on: HIV-1 pseudotyped virus
# assay_text: HIV-1 pseudotyped virus assay (luciferase reporter gene, single cycle of infection)
# Format: cell-based
# conditions: Human immunodeficiency virus 1, CCR5, 72 h, read-out: Activity (antiviral activity, IC50)
Each entry below carries its recorded IC50.

{"columns": ["compound", "IC50"],
 "data": [
  ["C[C@@H]1CN(C(=O)c2ccccc2)CCN1C(=O)C(=O)c1ccc(-c2nnn(C)n2)cc1 [Example 105]", "< 5 µM"],
  ["C[C@@H]1CN(C(=O)c2ccccc2)CCN1C(=O)C(=O)c1ccc(-n2ccnn2)c(Cl)c1 [Example 232]", "> 5 µM"],
  ["Cc1cc(-c2cc[nH]n2)ccc1C(=O)C(=O)N1CCN(C(=O)c2ccccc2)C[C@H]1C [Example 181]", "< 5 µM"],
  ["C[C@@H]1CN(C(=O)c2ccccc2)CCN1C(=O)C(=O)c1ccc(-c2ccc(C(F)(F)F)cn2)cc1 [Example 201]", "< 5 µM"],
  ["COc1cc(-c2cnn(C)c2)ncc1C(=O)C(=O)N1CCN(C(=O)c2ccccc2)C[C@H]1C [Example 239]", "< 5 µM"],
  ["CC1CN(C(=O)c2ccccc2)CCN1C(=O)C(=O)c1ccc(-n2cncn2)cc1 (stereo not shown) [Example 170]", "< 5 µM"],
  ["COc1cc(Br)c(Cl)cc1C(=O)C(=O)N1CCN(C(=O)c2ccccc2)CC1 [Example 228]", "< 5 µM"]
]}
